Hello, the source for this data is the supplement of paper PMC11537057, in case you need it.

system: A549 infected with HSV-1; experiment: cell number in HSV-1-infected wells relative to infected DMSO wells (H2B-RFP signal); higher = more surviving cells (uninfected or antiviral-protected wells give about 200%; low = toxicity); settings: 10 µM; 48 h; MOI: 0.1
Counter-ions that a name gives are not always drawn. In all, about 1,700 compounds were measured (“cell number in HSV-1-infected wells relative to infected DMSO wells (H2B-RFP signal)”: median about 100, highest 2% from about 140 on). The sample as a whole holds a higher share of the highest values than the screen did.
endpoint label: cell number in HSV-1-infected wells (%)
Lab book: enter the figure in %, no units written.

Some compounds with known cell number in HSV-1-infected wells results, for comparison:
{"compound": "CN(C/C=C/C#CC(C)(C)C)Cc1cccc2ccccc12", "reported": 99.9}
{"compound": "Cc1onc(-c2c(F)cccc2Cl)c1C(=O)N[C@@H]1C(=O)N2[C@@H]1SC(C)(C)[C@@H]2C(=O)O [Flucloxacillin sodium]", "reported": 111}
{"compound": "OC1CC2CCC(C1)N2 (stereo not given) [Nortropine Hydrochloride]", "reported": 105}
{"compound": "CN1CCN(C(c2ccccc2)c2ccccc2)CC1 [Cyclizine 2HCl]", "reported": 153}

Switching to the query record.
Exercise: Respond only with cell number in HSV-1-infected wells recorded for Cc1[nH]cnc1CN1CCc2c(c3ccccc3n2C)C1=O [Alosetron Hydrochloride]
Key: 112

###

Recorded cell number in HSV-1-infected wells values for a group of compounds are listed next.
system: A549 infected with HSV-1; experiment: cell number in HSV-1-infected wells relative to infected DMSO wells (H2B-RFP signal); higher = more surviving cells (uninfected or antiviral-protected wells give about 200%; low = toxicity); details: 10 µM; 48 h; MOI: 0.1
Where a name gives a salt, the structure may show the parent alone. Whole data set: some 1,700 compounds, median “cell number in HSV-1-infected wells relative to infected DMSO wells (H2B-RFP signal)” near 100, cut for the highest 2% near 140. Only a selection was taken, and the highest values are over-represented in it overall.
Lab book: enter the figure in %, no units written.

{"compound": "CCCN1CCCC[C@H]1C(=O)Nc1c(C)cccc1C [Ropivacaine HCl]", "cell number in HSV-1-infected wells [%]": 87.6}
{"compound": "CCCOC(C(=O)OC1CCN(C)CC1)(c1ccccc1)c1ccccc1 [Propiverine hydrochloride]", "cell number in HSV-1-infected wells [%]": 102}
{"compound": "Cc1ccc2c(c1)[C@]13CCCC[C@@H]1[C@H](C2)N(C)CC3 [Dimemorfan phosphate]", "cell number in HSV-1-infected wells [%]": 127}
{"compound": "OC[C@H]1O[C@@H](c2ccc(Cl)c(Cc3ccc(O[C@H]4CCOC4)cc3)c2)[C@H](O)[C@@H](O)[C@@H]1O", "cell number in HSV-1-infected wells [%]": 110}
{"compound": "Cc1ccccc1-c1cc(N2CCN(C)CC2)ncc1N(C)C(=O)C(C)(C)c1cc(C(F)(F)F)cc(C(F)(F)F)c1", "cell number in HSV-1-infected wells [%]": 146}

Exercise: GET cell number in HSV-1-infected wells | system: A549 infected with HSV-1 | item: "CN1CCC(=C2c3ccccc3CCn3c(C=O)cnc32)CC1"
Key: 128

Exercise: GET cell number in HSV-1-infected wells | system: A549 infected with HSV-1 | item: Cl.NCCCC[C@H](N)C(=O)O [L-Lysine hydrochloride]
Key: 124

Exercise: GET cell number in HSV-1-infected wells | system: A549 infected with HSV-1 | item: CCOc1cc(N)c(Cl)cc1C(=O)NCC1CN(Cc2ccc(F)cc2)CCO1 (configuration not stated) [Mosapride Citrate]
Key: 89.7

Exercise: GET cell number in HSV-1-infected wells | system: A549 infected with HSV-1 | item: COC(=O)C1=C(C)NC(C)=C(C(=O)OC(C)C)C1c1cccc2nonc12 (configuration not stated)
Key: 97.7

Exercise: GET cell number in HSV-1-infected wells | system: A549 infected with HSV-1 | item: "CC(C)(Oc1ccc(Cl)cc1)C(=O)O"
Key: 82.4

Exercise: GET cell number in HSV-1-infected wells | system: A549 infected with HSV-1 | item: CCN(CC)C(=O)N1CCN(C)CC1 [Diethylcarbamazine citrate]
Key: 89.5

Exercise: GET cell number in HSV-1-infected wells | system: A549 infected with HSV-1 | item: CC(C)C(=O)OCC(=O)[C@@]12O[C@H](C3CCCCC3)O[C@@H]1C[C@H]1[C@@H]3CCC4=CC(=O)C=C[C@]4(C)[C@H]3[C@@H](O)C[C@@]12C [Ciclesonide]
Key: 120

Exercise: GET cell number in HSV-1-infected wells | system: A549 infected with HSV-1 | item: COC(=O)C1=C(C)NC(C)=C(C(=O)OCC(C)C)C1c1ccccc1[N+](=O)[O-] (configuration not stated)
Key: 92.2

Exercise: GET cell number in HSV-1-infected wells | system: A549 infected with HSV-1 | item: CN1CCN(CCCN2c3ccccc3Sc3ccc(Cl)cc32)CC1 [Prochlorperazine dimaleate salt]
Key: 124

###

tested on: A549 infected with HSV-1; assay: cell number in HSV-1-infected wells relative to infected DMSO wells (H2B-RFP signal); higher = more surviving cells (uninfected or antiviral-protected wells give about 200%; low = toxicity); conditions: 10 µM; 48 h; MOI: 0.1
Counter-ions that a name gives are not always drawn. In all, about 1,700 compounds were measured (“cell number in HSV-1-infected wells relative to infected DMSO wells (H2B-RFP signal)”: median about 100, highest 2% from about 140 on). The sample as a whole holds a higher share of the highest values than the screen did.
Recorded cell number in HSV-1-infected wells values for a group of compounds are listed next.

{"compound": "O=C(O)c1ccc(NC(=O)[C@H](Cc2ccc(O)cc2)NC(=O)c2ccccc2)cc1 [Bentiromide]", "cell number in HSV-1-infected wells": "101%"}
{"compound": "Nc1nc(O)c2ncn(CCC(CO)CO)c2n1 [Penciclovir]", "cell number in HSV-1-infected wells": "205%"}
{"compound": "CC1(C)C[C@@H]1C(=O)N/C(=C\\CCCCSC[C@H](N)C(=O)O)C(=O)O [Cilastatin]", "cell number in HSV-1-infected wells": "99%"}
{"compound": "CC(=O)OCC(CCn1cnc2cnc(N)nc21)COC(C)=O [Famciclovir]", "cell number in HSV-1-infected wells": "104%"}
{"compound": "Nc1ncn([C@@H]2O[C@H](CO)[C@@H](O)[C@H]2O)c(=O)n1 [Azacitidine]", "cell number in HSV-1-infected wells": "98.3%"}
{"compound": "CN(C)CCC=C1c2ccccc2COc2ccccc21 [Doxepin HCl]", "cell number in HSV-1-infected wells": "104%"}
{"compound": "Nc1ccn([C@H]2CC[C@@H](CO)O2)c(=O)n1 [Zalcitabine]", "cell number in HSV-1-infected wells": "105%"}
{"compound": "CS(=O)(=O)c1cccc(C[C@H](NC(=O)c2c(Cl)cc3c(c2Cl)CCN(C(=O)c2ccc4ccoc4c2)C3)C(=O)O)c1 [Lifitegrast]", "cell number in HSV-1-infected wells": "104%"}
{"compound": "COc1ccc2c(c1)c(CC(=O)O)c(C)n2C(=O)c1ccc(Cl)cc1 [Indomethacin]", "cell number in HSV-1-infected wells": "119%"}
{"compound": "CC(C)OC(=O)CCC/C=C\\C[C@@H]1[C@@H](/C=C/C(F)(F)COc2ccccc2)[C@H](O)C[C@@H]1O [Tafluprost]", "cell number in HSV-1-infected wells": "83.4%"}

Exercise: Respond only with cell number in HSV-1-infected wells recorded for CC(C)CCCCC(=O)N[C@@H](CCN)C(=O)N[C@H](C(=O)N[C@@H](CCN)C(=O)N[C@H]1CCNC(=O)[C@H]([C@@H](C)O)NC(=O)[C@H](CCN)NC(=O)[C@H](CCN)NC(=O)[C@H](CC(C)C)NC(=O)[C@@H](Cc2ccccc2)NC(=O)[C@H](CCN)NC1=O)[C@@H](C)O [Polymyxin B sulphate]
Key: 132%

Exercise: Respond only with cell number in HSV-1-infected wells recorded for Cc1c(-c2cnccn2)ssc1=S [Oltipraz]
Key: 100%

Exercise: Respond only with cell number in HSV-1-infected wells recorded for O=c1[nH]c(=O)n([C@H]2C[C@H](O)[C@@H](CO)O2)cc1F [Floxuridine]
Key: 53.3%

Exercise: Respond only with cell number in HSV-1-infected wells recorded for Nc1ncn([C@H]2C[C@H](O)[C@@H](CO)O2)c(=O)n1 [Decitabine]
Key: 166%

Exercise: Respond only with cell number in HSV-1-infected wells recorded for CNCCCN1c2ccccc2CCc2ccccc21 [Desipramine Hydrochloride]
Key: 163%

Exercise: Respond only with cell number in HSV-1-infected wells recorded for CCC/N=C1\S/C(=C\c2ccc(OC[C@H](O)CO)c(Cl)c2)C(=O)N1c1ccccc1C [Ponesimod]
Key: 17.2%

Exercise: Respond only with cell number in HSV-1-infected wells recorded for Cc1nc(-c2ccc(OCC(C)C)c(C#N)c2)sc1C(=O)O [Febuxostat]
Key: 95.2%
